target: human leukocyte elastase (Homo sapiens, UniProt P08246)
Sequence (P08246 30-267): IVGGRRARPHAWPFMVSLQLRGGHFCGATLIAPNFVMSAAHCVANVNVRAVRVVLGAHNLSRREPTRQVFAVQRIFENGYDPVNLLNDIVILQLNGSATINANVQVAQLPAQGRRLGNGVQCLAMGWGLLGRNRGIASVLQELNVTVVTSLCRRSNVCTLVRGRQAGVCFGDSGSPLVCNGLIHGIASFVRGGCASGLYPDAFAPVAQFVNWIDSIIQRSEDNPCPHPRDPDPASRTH
Measured attribute: IC50
The answer consists of two parts: a number and, after it, its unit.

// fetch IC50; item: "O=C(Cc1ccc(O)c(O)c1)OC[C@H]1O[C@@H](Oc2c(-c3ccc(O)cc3)oc3cc(O)cc(O)c3c2=O)[C@H](O)[C@@H](O)[C@@H]1O" ; system: human leukocyte elastase (Homo sapiens, UniProt P08246)
83.2 µM
